Each recorded value in this set is attributed to PubChem BioAssay (NCI).

- Test system: SF-295 CNS
- assay.explanation: NCI-60 one-dose screen, 48 h (100 = growth as untreated, 0 = no growth, -100 = all killed)
- protocol.conditions: 10 µM
The panel holds about 83,000 compounds, 20% with a hit somewhere; the sample as a whole holds those more often. Activity calls are given as the source filed them. Rule for the calls: active = growth percent below 10; inactive = the rest.
observed.property: growth

Reported growth, molecule O=C(Nc1ccc(Cl)c(C(F)(F)F)c1)c1cncc(C#Cc2cnc3ccc(N4CCOCC4)nn23)c1 : ____
5.28% (active)

Reported growth, molecule CN1CCc2c(sc3ncnc(N/N=C/c4cn(-c5ccccc5)nc4-c4ccc(Cl)cc4)c23)C1 : ____
21.6% (inactive)

Reported growth, molecule CCOC(=O)c1sc(N/N=C(\C)c2ccc3c(c2)Nc2ccccc2S3)nc1C : ____
-14.9% (active)

Reported growth, molecule CC1(C)CC[C@]23CC[C@]4(C)[C@H](CC[C@@H]5[C@@]6(C)CC[C@H](N)C(C)(C)[C@@H]6CC[C@]54C)[C@H]2[C@H]1OC3=O : ____
-94.5% (active)

* * *

- System: SK-OV-3 ovarian
- assay.explanation: NCI-60 one-dose screen, 48 h
- protocol.conditions: 10 µM
- Description: Growth inhibition of the SK-OV-3 human tumor cell line is measured as a screen for anti-cancer activity. Cells are grown in 96 well plates and exposed to the test compound for 48 hours. Compounds are tested at a single concentration, which is 10^-5 M for most compounds. The reported endpoint is percent growth (GI% or GIPRCNT), where numbers from 0 - 100% represent growth inhibition, and numbers from -100% - 0 represent cell death. For example, a value of 40 represents 60% growth inhibition. […]
This is part of a sample that, as a whole, favours compounds with a hit. Of some 83,000 tested, about 20% had one in any assay. Calls of active or inactive are those of the source. How the source made its calls: active means growth percent below 10; inactive means the rest.
Field 'call' accepts label 1 = active, label 0 = inactive

Recorded call for CN1CCN(c2ccc(Nc3nc(NCCCNC(=O)c4ccccc4)c4sccc4n3)cc2)CC1 ?
label 0

Recorded call for c1ccc(C(=C(c2ccc(OCCN3CCCCC3)cc2)c2ccc(OCCN3CCCCC3)cc2)C2CCCC2)cc1 ?
label 1

Recorded call for COc1ccc(-c2cc(-c3cc(C(=O)c4ccc(Br)cc4)n4ccc(C)cc34)nc(N)c2C#N)cc1 ?
label 0

Recorded call for N#Cc1c(-c2ccc(F)cc2)nc(SCc2ccc([N+](=O)[O-])cc2)nc1N1CCOCC1 ?
label 0

Recorded call for Cc1ccc(/C(CSc2nnc(-c3c[nH]c4ccccc34)n2-c2ccccc2)=N/O)cc1 ?
label 0

Recorded call for CC1(C)[C@@H](NCO)CC[C@]2(C)[C@H]3C(=O)C=C4[C@@H]5C[C@](C)(CO)CC[C@]5(C)CC[C@@]4(C)[C@]3(C)CC[C@@H]12 ?
label 0

Recorded call for COc1ccc2[nH]c(=O)c(CSc3nccc(-c4ccc(Cl)cc4)n3)cc2c1 ?
label 0

* * *

- Test system: SR leukemia
- assay.explanation: NCI-60 one-dose screen, 48 h (100 = growth as untreated, 0 = no growth, -100 = all killed)
- protocol.conditions: 10 µM
About 83,000 compounds went through this panel and 20% of them were active in at least one assay; those are over-represented in the sample as a whole.
Exercise: state measured growth for each of the compounds provided.
Dear colleague, please return just the value in %, with no unit written.

Reported growth, compound Cc1ccc(-c2ccc(SCC(=O)Nc3ccc(S(N)(=O)=O)cc3Br)nn2)cc1 : ____
75.3

Reported growth, compound N#Cc1ccc(NC(=O)CSc2ccc(-c3ccc(Br)cc3)nn2)cc1 : ____
46.6

Reported growth, compound Cc1ccc(C(=O)N/C(=C2/OCCN2C)[P+](c2ccccc2)(c2ccccc2)c2ccccc2)cc1 : ____
79.5

Reported growth, compound Cc1ccc2nc(-c3ccc(-c4nnc(SCC(=O)Nc5ccc(Cl)cc5)o4)cc3)[nH]c2c1 : ____
21.8

Reported growth, compound Cc1ccc(/C=C/C(=O)c2ccc(S(=O)(=O)NCCNc3nc(Nc4ccc(F)cc4)nc(N(C)C)n3)cc2)cc1 : ____
1.14

Reported growth, compound Cc1cc2nc3c4ccccc4n(CCO)c3nc2cc1C : ____
27.2

Reported growth, compound O=C(NO)c1ccc(CNc2nc(-c3ccccc3)c3ccccc3n2)cc1 : ____
15.7

Reported growth, compound CC(C)C1=C[C@@]23CC[C@@H]4[C@](C)(CCC[C@]4(C)C(=O)NCc4ccccc4)[C@H]2C[C@@H]1[C@H]1C(=O)CCC(=O)[C@H]13 : ____
44.4

Reported growth, compound COc1cc2oc(-c3cccc(C(=O)Nc4ccc(Cl)cc4)c3)cc(=O)c2c(OCCNC(=O)CNC(=O)OC(C)(C)C)c1OC : ____
37.5

Reported growth, compound CCNCCCn1c2c(c3cc(OC)c(OC)cc3c1=O)C(=O)c1cc3c(nc1-2)OCO3 : ____
-7.45

Reported growth, compound COc1ccc(CN2[C@H](C(=O)NCc3ccc(C(=O)NO)cc3)Cc3c([nH]c4ccccc34)[C@H]2C2CC2)cc1 : ____
25.5

Reported growth, compound COc1nccnc1NS(=O)(=O)c1ccc(NC2=C(Cl)C(=O)c3nc(C)ccc3C2=O)cc1 : ____
115

Reported growth, compound CCOC(=O)CNC(=O)CN(Cc1ccccc1)C(=O)[C@@]1(C)CCC[C@]2(C)[C@H]3C[C@H]4C(C(C)C)=C[C@]3(CC[C@H]21)[C@@H]1C(=O)OC(=O)[C@@H]14 : ____
4.44

Reported growth, compound CCOc1ccc(/C=N/NC(=O)Cn2nc(Cc3ccccc3)c3onc(C)c3c2=O)cc1 : ____
78.1

Reported growth, compound CN1C(=O)N(C)C2SC(N/N=C/C=C/c3ccccc3)=NC21 (stereo not given) : ____
13.2

Reported growth, compound CCOP(=O)(OCC)O[C@H]1CCC(=O)[C@@H]2[C@H]1[C@H]1C[C@@H]3[C@@]4(C)CCCC(C)(C(=O)OC)[C@@H]4CC[C@@]23C=C1C(C)C (stereo not given in full) : ____
37.5

Reported growth, compound Cc1ccc(/C=C/C(=O)c2ccc(NC(=O)CSc3nnc(-c4c[nH]c5ccccc45)n3-c3ccccc3)cc2)c(C)c1 : ____
41.6

Reported growth, compound COc1ccc(/C=C/C(=O)c2ccc(S(=O)(=O)NCCNc3nc(Nc4ccc(F)cc4)nc(N(C)C)n3)cc2)cc1 : ____
3.4

Reported growth, compound COc1ccc2[nH]cc(/C=N/Nc3ccc(Br)cn3)c2c1 : ____
3.07

Reported growth, compound O=C(NO)c1ccc(CNC(=O)[C@H]2Cc3c([nH]c4ccccc34)[C@H](c3ccccc3)N2)cc1 : ____
23.8

Reported growth, compound COc1cc2c3c(n(CCCN4CCOCC4)c(=O)c2cc1OC)-c1nc2c(cc1C3=O)OCO2 : ____
12.5

Reported growth, compound O=C(/C=C/Nc1ccccc1)c1ccc2c(c1)Nc1ccccc1S2 : ____
87.8

Reported growth, compound CCOc1ccc2ncc(C#Cc3cncc(C(=O)Nc4ccc(CN5CCN(C)CC5)c(C(F)(F)F)c4)c3)n2n1 : ____
1.01

Reported growth, compound CC(=O)C1=C(C)NC(SCC(=O)Nc2ccc(S(=O)(=O)Nc3cc(C)on3)cc2)=NC1c1ccccc1 (stereo not given) : ____
94.1

Reported growth, compound COc1cc2c3c(n(CCCNC(C)C)c(=O)c2cc1OC)-c1nc2c(cc1C3=O)OCO2 : ____
2.57

Reported growth, compound C/C(=N\N=C\c1ccc(N(C)C)cc1)c1ccc2c(c1)Nc1ccccc1S2 : ____
50

Reported growth, compound CC(=O)NS(=O)(=O)c1ccc(NC(=O)CSC2=NC(c3ccccc3)C(C(C)=O)=C(C)N2)cc1 (stereo not given) : ____
101

Reported growth, compound NS(=O)(=O)c1ccc(N=Nc2c(O)n(CC(=O)Nc3ccccc3Br)c3ccccc23)cc1 : ____
41.3

Reported growth, compound COC(=O)C[C@](O)(CCCC(C)(C)O)C(=O)O[C@H]1C(OC)=C[C@@]23CCC(=O)N2CCc2cc4c(cc2[C@@H]13)OCO4 : ____
80.6

Reported growth, compound CN(CCO)c1oc(-c2ccccc2)nc1[P+](c1ccccc1)(c1ccccc1)c1ccccc1 : ____
5.21

Reported growth, compound O=c1oc2ccccc2cc1-c1csc(N=Nc2c(O)[nH]c3ccc(Br)cc23)n1 : ____
97.1

Reported growth, compound Nc1nc(Nc2ccc(Cl)cc2)n(Cc2cccc(Br)c2)n1 : ____
10.4

Reported growth, compound N#Cc1c(NC(=O)c2ccc(C(F)(F)F)cc2C(F)(F)F)sc2c1CCC(=O)C2 : ____
-11.3

Reported growth, compound COc1cc(/C=N/NC(=O)c2ccc3nc(-c4ccc(Cl)cc4)[nH]c3c2)cc(OC)c1OC : ____
-6.5

Reported growth, compound COc1ccc(C2NC(=S)NC(C)=C2C(=O)OC(C)C)cc1OC (stereo not given) : ____
101
